// provenance: patent US20060094790A1

Target or test system: sphingosine kinase (Mus musculus, UniProt Q8CI15)
Construct: host or cells: F9-12 cells
Sequence (Q8CI15 1-381 isoform Q8CI15-3): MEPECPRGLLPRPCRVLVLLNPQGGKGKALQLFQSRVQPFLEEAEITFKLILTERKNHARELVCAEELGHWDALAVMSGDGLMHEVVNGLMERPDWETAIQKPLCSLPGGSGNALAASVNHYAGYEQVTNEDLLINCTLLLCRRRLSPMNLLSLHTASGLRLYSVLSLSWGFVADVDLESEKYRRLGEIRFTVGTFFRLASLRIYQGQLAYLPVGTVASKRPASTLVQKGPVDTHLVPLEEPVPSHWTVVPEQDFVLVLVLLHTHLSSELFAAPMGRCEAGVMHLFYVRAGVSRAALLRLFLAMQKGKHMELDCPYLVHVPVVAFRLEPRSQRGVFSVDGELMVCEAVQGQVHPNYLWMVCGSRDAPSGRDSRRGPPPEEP
Protocol: Activation of sphingosine kinase (C17-sphingosine-1-phosphate production, HPLC)
Type: cell-based
Assay setup: F9-12 cells, 24 hours; 50 μM compound, PMA 300 nM; versus non-treated control
Property: increase in production of sphingosine-1-phosphate

Compound	Reported
CCCCCCCC(=O)C(CCCCCC)C(=O)NCC(O)CO (centres unmarked) [K6PC-4]	about 30%
CCCCCCCC(=O)C(CCCCCC)C(=O)NCCO (centres unmarked) [K6PC-9, N-ethanol-2-hexyl-3-oxo-decanamide]	about 30%
CCCCCCCC(=O)C(CCCCCC)C(=O)NC(C)(CO)CO (centres unmarked) [K6PC-7]	about 46%
CCCCCCCC(=O)C(CCCCCC)C(=O)NC(CO)CO (centres unmarked) [K6PC-5]	about 46%
